Entries annotated with measured activity
# assayed-system: Catechol O-methyltransferase (Homo sapiens) (UniProt P21964)
# Sequence (P21964 whole entry, looked up): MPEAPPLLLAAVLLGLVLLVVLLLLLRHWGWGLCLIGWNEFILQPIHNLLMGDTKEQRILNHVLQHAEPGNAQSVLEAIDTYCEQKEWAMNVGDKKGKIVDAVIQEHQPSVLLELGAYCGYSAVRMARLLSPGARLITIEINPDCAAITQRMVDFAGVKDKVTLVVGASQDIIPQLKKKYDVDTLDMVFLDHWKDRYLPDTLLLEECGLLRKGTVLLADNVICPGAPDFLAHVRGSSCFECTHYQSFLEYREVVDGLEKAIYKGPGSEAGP
# experimental-details: Confirmatory Screen for Target Class Profiling of Small Molecule Inhibitors of Methyltransferases (AID 1745852)
# test-settings: MTase-Glo luminescence, SAH detection, recombinant enzyme; measured here: COMT max response; stronger effect = lower value

compound: O=C(CCCc1nnc2n3nc(-c4ccccc4)nc3c3ccccc3n12)NCCN1CCCC1
activity (%): 3.65

compound: c1ccc(CN2CCc3c(sc4ncnc(N5CCOCC5)c34)C2)cc1
activity (%): -7.7

compound: CC(C)Cn1c(=O)c2ccccc2n2c(CCC(=O)N3CCN(Cc4ccccc4)CC3)nnc12
activity (%): 0.0224

compound: CCN(CC)CCNC(=O)CCc1nnc2n(CCc3ccccc3)c(=O)c3ccccc3n12
activity (%): -2.93

compound: COc1ccc(CC(=O)Nc2ccc3ncnc(N4CCCC4)c3c2)c(Cl)c1
activity (%): -2.51

compound: CCCN1CCn2c3c(c4cc(OC)ccc42)CCN=C31
activity (%): -5.03

compound: COc1cccc(-c2cccc(C(=O)N3C[C@H](CO)C[C@H](CN(C)C)C3)c2)c1
activity (%): 7.14

compound: COc1ccc(-c2cc(-c3cnn(C)c3)cn3cncc23)cn1
activity (%): -23.7

compound: COc1ncccc1-c1nccn2c(C3CN(Cc4ccccc4O)C3)ncc12
activity (%): 2.23

compound: CCOC(=O)c1cc2n(n1)CC(C)(C(=O)NCCC(C)C)N(c1ccccc1C)C2=O (stereo not drawn)
activity (%): 2.78

compound: N#Cc1ccccc1-c1cc2c(ccn2Cc2ccncc2)c(N2CCOCC2)n1
activity (%): -6.69

compound: CCOc1ccccc1CN1CCC(Cc2nc(-c3cccnc3)n[nH]2)C1 (stereo not drawn)
activity (%): 2.59

compound: O=C(O)c1ccc(Nc2nc3ccccc3n3cnnc23)cc1
activity (%): -82.3

compound: O=C(N[C@H](C1CCNCC1)C1CC(O)C1)c1ccc2nccnc2c1 (stereo partly drawn)
activity (%): -0.82

compound: CC(C)OCCCn1c(=O)c2ccccc2n2c(CCC(=O)N3CCN(c4cccc(Cl)c4)CC3)nnc12
activity (%): 0.543

compound: Cc1cc(F)ccc1NS(=O)(=O)c1ccc2[nH]c3c(c2c1)CCCC3
activity (%): 0

compound: COc1cc2nc(N3CCCCC3)nc(NC3CCN(Cc4ccccc4)CC3)c2cc1OC
activity (%): 11.8

compound: Cc1ccc2nc(CN(C)C(=O)C3CCC(=O)N(C4CCCCCC4)C3)[nH]c2c1 (stereo not drawn)
activity (%): -3.1

compound: CC1(C(=O)NC2CCCCCC2)Cn2c(c(-n3cccc3)c3ccccc32)C(=O)N1CC1CCCO1 (stereo not drawn)
activity (%): 4.7

compound: CCc1cccc(NC(=O)Cn2c(=O)oc3cc(S(=O)(=O)N4CC(C)CC(C)C4)ccc32)c1 (stereo not drawn)
activity (%): 3.4

compound: CCCn1c(=O)c2ccccc2n2c(=O)n(CC(=O)c3cccc(Cl)c3)nc12
activity (%): -8.93

compound: Cc1nccn1CCC1CCN(c2nccc(-c3ccccn3)n2)CC1
activity (%): 9.05

compound: Cc1cc(-c2cc3c(cn2)N(C)CCN(C)C3)ccn1
activity (%): 5.42

compound: COc1ccc(S(=O)(=O)NC[C@H]2Cn3c(-c4ccc(Cl)cc4)cnc3CO2)cc1
activity (%): -8.66

compound: COc1ccc(CN2C(=O)c3cc4ccccc4n3CC2(C)C(=O)NCc2ccccc2)cc1OC (stereo not drawn)
activity (%): 4.11

compound: COCCCNC(=O)c1cnc2n[nH]c(-c3ccccc3)c2n1
activity (%): -62.1

compound: COc1ccc(CCN2C(=O)c3cc4occc4n3CC2(C)C(=O)NC2CCCCC2)cc1OC (stereo not drawn)
activity (%): 2.48

compound: Cn1cc(CN2CCCC(COc3ccccc3C(=O)N3CCCCC3)C2)c2ccccc21 (stereo not drawn)
activity (%): 6.44

compound: C1=C(c2nc(-c3ccncc3)cc3c2ccn3Cc2cccnc2)CCOC1
activity (%): -19

compound: O=C(NCc1ccc2c(c1)OCO2)c1sc(=S)n2c1[nH]c(=O)c1ccc(Cl)cc12
activity (%): -88.3

compound: Cc1cnc(CCNC(=O)Nc2ccc3c(c2)OCCO3)n1C1CCC1
activity (%): 2.74

compound: Cn1ccc2c(C(=O)NCCc3cnc[nH]3)nc(-c3ccc(N4CCOCC4)cc3)cc21
activity (%): -6.99

compound: O=C(CCc1ccccc1)N1CCNc2cnc(Nc3cccnc3)nc2C1
activity (%): -28.2
